# Assay details: Luminescence Cell-Based Dose Response HTS to Identify Activators of Luciferase Translation or Activity in H4 […] Cells. [Related pubchem assays: 1829 (Project Summary), 1814 (Primary HTS)]
# Format: functional
Activity calls are given as the source filed them.
Property: EC50; scope: individual compounds

O=[N+]([O-])c1ccc(-[n+]2ccc3ccccc3c2)c([N+](=O)[O-])c1 :: 11.4 µM (active)

Ask | Query: EC50; subject: `c1ccc2c(-c3nc(-c4ccncc4)no3)cccc2c1`
Reply | > 120 µM (not active)

Ask | Try the compound `CN1CCSc2ccc(C(=O)Nc3ccc(Cl)cc3)cc21`
Reply | 0.148 µM (active)

----------
# Tested system: Calpain-2 catalytic subunit (Sus scrofa, UniProt P43367)
# Sequence (P43367 whole entry): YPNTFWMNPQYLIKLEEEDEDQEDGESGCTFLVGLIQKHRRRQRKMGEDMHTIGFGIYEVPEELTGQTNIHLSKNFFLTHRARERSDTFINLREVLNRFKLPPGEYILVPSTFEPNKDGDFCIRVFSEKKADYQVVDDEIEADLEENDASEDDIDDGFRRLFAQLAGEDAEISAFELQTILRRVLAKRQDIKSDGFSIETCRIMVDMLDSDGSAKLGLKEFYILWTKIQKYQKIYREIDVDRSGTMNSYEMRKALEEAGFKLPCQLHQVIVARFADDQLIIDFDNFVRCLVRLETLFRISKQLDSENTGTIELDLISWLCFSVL
# Assay details: pig calpain II inhibitor potency, dose response, biochemical, fluorogenic peptide substrate (AID 1420)
# Assay type: functional
Calls of active or inactive are those of the source.
Property: IC50; scope: individual compounds

Ask | Query: IC50; subject: `CCCCCC(=O)Nc1ccc(N2CCN(CC)CC2)c(Cl)c1`
Reply | 18.8 µM (not active)

Ask | Try the compound O=C(NCC(=O)N(c1ccc(F)cc1)C(C(=O)NC1CCCC1)c1cccnc1)c1cccs1 (centres undefined)
Reply | < 0.4 µM (not active)

Ask | Try the compound CCOc1ccc(OCc2ccc(C(=O)N3CCCC(C)C3)cc2)cc1 (centres undefined)
Reply | 10.5 µM (active)

Ask | Try the compound `Cc1noc(C)c1CSc1nc2ccccc2c(=O)n1-c1ccc(F)cc1F`
Reply | 4.76 µM (not active)

----------
# Assay details: Luminescence Cell-Based Dose Response HTS to Identify Activators of Luciferase Translation or Activity in H4 […] Cells. [Related pubchem assays: 1829 (Project Summary), 1814 (Primary HTS)]
# Format: functional
Property: EC50; scope: individual compounds

Ask | Query: EC50; subject: `Cn1cc(/C=C(\NC(=O)c2ccccc2Cl)C(=O)NCCN2CCOCC2)c2ccccc21`
Reply | > 120 µM (not active)

----------
# Tested system: Heat shock protein HSP 90-alpha (Homo sapiens, UniProt P07900)
# Assay type: functional, organism-based
Calls of active or inactive are those of the source.
Property: AC50; scope: individual molecules

Worked cases, answers included:
Oc1cc(Cl)ccc1Oc1ccc(Cl)cc1Cl [TRICLOSAN] :: 7.85 µM (active)
C[C@@]12C(=O)Nc3ccc(F)cc3C(=O)N1[C@H]1c3ccccc3OC[C@@H]1[C@@H]2c1ccccc1 :: 5.82 µM (active)
O=C(O)c1cccc(NN=C2c3ccccc3-c3ccccc32)c1 :: 8.32 µM (active)
Cc1cccc(Nc2nc(N)c([N+](=O)[O-])c(N3CCCC(C)C3)n2)c1 (stereo unspecified) :: 4.6 µM (active)
O=C1/C(=C\c2ccc([N+](=O)[O-])cc2)CS(=O)(=O)C/C1=C/c1ccc([N+](=O)[O-])cc1 :: 0.353 µM (active)

Now consider a different molecule.
Ask | Query: AC50; subject: `COc1ccc(SN=C2C(C)=CC(=O)C=C2C)cc1`
Reply | 6.51 µM (active)
